Quick reference for inhibition among some compounds
target: Class A carbapenemase KPC-2 (Escherichia coli) (UniProt A8DS27); assay: Inhibition of KPC-2 (unknown origin) expressed in Escherichia coli BL21 (DE3) at 10 uM incubated for 3 mins by spectrophotometric analysis relative to control
observable: inhibition

compound="COc1ccc(N2/C(=N/c3ccc(I)cc3)CC2c2ccc(I)cc2)cc1 (racemic)" subject_of_test="Class A carbapenemase KPC-2 (Escherichia coli) (UniProt A8DS27)" observable=inhibition assay_result="> 50%"
compound="COc1ccc(N2/C(=N/c3ccc(I)cc3)CC2c2cc(Cl)cc(Cl)c2)cc1 (racemic)" subject_of_test="Class A carbapenemase KPC-2 (Escherichia coli) (UniProt A8DS27)" observable=inhibition assay_result=42%
compound="Oc1ccc(N2/C(=N/c3ccc(I)cc3)CC2c2ccc(Cl)cc2Cl)cc1 (racemic)" subject_of_test="Class A carbapenemase KPC-2 (Escherichia coli) (UniProt A8DS27)" observable=inhibition assay_result="> 50%"
compound="O=C(O)c1ccc(N2/C(=N/c3ccc(I)cc3)CC2c2ccc(Cl)cc2Cl)cc1 (racemic)" subject_of_test="Class A carbapenemase KPC-2 (Escherichia coli) (UniProt A8DS27)" observable=inhibition assay_result="> 50%"
compound="COc1cccc(N2/C(=N/c3ccccc3)CC2c2ccccc2)c1 (racemic)" subject_of_test="Class A carbapenemase KPC-2 (Escherichia coli) (UniProt A8DS27)" observable=inhibition assay_result="> 50%"
compound="CSc1ccc(N2/C(=N/c3ccccc3)CC2c2ccccc2)cc1 (racemic)" subject_of_test="Class A carbapenemase KPC-2 (Escherichia coli) (UniProt A8DS27)" observable=inhibition assay_result=50%
compound="COc1ccc(N2/C(=N/c3ccc(I)cc3)CC2c2ccc(F)cc2)cc1 (racemic)" subject_of_test="Class A carbapenemase KPC-2 (Escherichia coli) (UniProt A8DS27)" observable=inhibition assay_result="> 50%"
compound="COc1ccc(N2/C(=N/c3ccc(C(F)(F)F)cc3)CC2c2ccc(Cl)cc2Cl)cc1 (racemic)" subject_of_test="Class A carbapenemase KPC-2 (Escherichia coli) (UniProt A8DS27)" observable=inhibition assay_result="> 50%"
compound="COc1ccc(N2/C(=N/c3ccc(Cl)cc3)CC2c2ccc3ccccc3c2)cc1 (racemic)" subject_of_test="Class A carbapenemase KPC-2 (Escherichia coli) (UniProt A8DS27)" observable=inhibition assay_result="> 50%"
compound="OCc1ccc(N2/C(=N/c3ccc(I)cc3)CC2c2ccc(Cl)cc2Cl)cc1 (racemic)" subject_of_test="Class A carbapenemase KPC-2 (Escherichia coli) (UniProt A8DS27)" observable=inhibition assay_result="> 50%"
compound="COc1ccc(N2/C(=N/c3ccccc3)CC2c2cc(Cl)cc(Cl)c2)cc1 (racemic)" subject_of_test="Class A carbapenemase KPC-2 (Escherichia coli) (UniProt A8DS27)" observable=inhibition assay_result="> 50%"

----------
target: Class A carbapenemase KPC-2 (Escherichia coli, UniProt A8DS27); assay: Inhibition of KPC-2 (unknown origin) expressed in Escherichia coli BL21 (DE3) incubated for 3 mins by spectrophotometric analysis; details: read-out: Ki
observable: Ki

compound="COc1ccc(N2/C(=N/c3ccc(I)cc3)CC2c2ccc(F)cc2)cc1 (racemic)" assay_result="6490 nM"
compound="CCOc1ccc(N2/C(=N/c3ccc(OC)cc3)CC2c2ccc3ccccc3c2)cc1 (racemic)" assay_result="1810 nM"
compound="COc1ccc(N2/C(=N/c3ccc(Br)cc3)CC2c2ccc3ccccc3c2)cc1 (racemic)" assay_result="5230 nM"
compound="COc1ccc(N2/C(=N/c3ccc(I)cc3)CC2c2ccc(Cl)cc2)cc1 (racemic)" assay_result="1770 nM"
compound="COc1ccc(N2/C(=N/c3ccccc3)CC2c2cc(Cl)cc(Cl)c2)cc1 (racemic)" assay_result="1400 nM"
compound="COc1ccc(N2/C(=N/c3ccc(I)cc3)CC2c2ccc(I)cc2)cc1 (racemic)" assay_result="5660 nM"
compound="CCOc1ccc(N2/C(=N/c3ccc(Cl)cc3)CC2c2ccc3ccccc3c2)cc1 (racemic)" assay_result="1960 nM"
compound="COc1cccc(N2/C(=N/c3ccccc3)CC2c2ccccc2)c1 (racemic)" assay_result="3600 nM"
compound="COc1ccc(N2/C(=N/c3ccc(Cl)cc3)CC2c2ccc(Cl)cc2)cc1 (racemic)" assay_result="1930 nM"
compound="c1ccc(/N=C2\\CC(c3ccccc3)N2c2ccc3c(c2)OCCO3)cc1 (racemic)" assay_result="3600 nM"
